All figures here come from paper PMC5693986.

Exercise: state measured pIC50 for each of the compounds provided.
# TARGET_SYSTEM: rabbit reticulocyte lysate translation
# ASSAY_OVERVIEW: In vitro inhibition of translation in rabbit reticulocyte lysates (luciferase reporter)
# Assay type: biochemical
# EXPERIMENTAL_CONDITIONS: mean ± SE of at least three independent repeats, read-out: Inhibition of translation—IC50, Reticulocytes
# Description: In order to assess cytosolic ribosome susceptibility and selectivity to putative anti-leishmanial compounds, we performed three different cell-free transcription-translation assays in S30 extracts of E. coli (Promega), rabbit reticulocytes (Promega) and L. tarentolae (Jena Bioscience). […] Luciferase activity was measured for each well following the addition of 50 μl Luciferase Assay reagent (Promega) by recording the chemi-luminescence signal on supplemented with automatic reagent injector (Tecan). […]
One number for each entry, as −log10 of the molar value.

Sample records with pIC50:
CNC(C)C1CCC(N)C(OC2C(N)CC(N)C(OC3OCC(C)(O)C(NC)C3O)C2O)O1 (stereo not shown) :: 4.21
NC[C@@H]1O[C@H](O[C@H]2[C@@H](O)[C@H](O[C@@H]3[C@@H](O)[C@H](N)C[C@H](N)[C@H]3O[C@H]3O[C@H](CN)[C@@H](O)[C@H](O)[C@H]3N)O[C@@H]2CO)[C@H](N)[C@@H](O)[C@@H]1O :: 4.55

Report pIC50 for every entry below.
1. CNC1CC(N)C(O)C(OC2OC(CO)C(O)C3OC4(OC(C(N)CO)C(O)C(O)C4O)OC23)C1O (stereo not shown)
2. CN[C@@H]1[C@@H](O[C@H]2O[C@H](CO)[C@@H](N)[C@H](O)[C@H]2O)OC2C[C@@H](N)[C@@H](O[C@H]3[C@H](O)[C@@H](O)[C@H](N)C[C@@H]3N)OC2[C@@H]1O (stereo partly shown)

Reply |
6.10
4.54
